- System: PPARγ
- experimental_protocol: PPARγ mRNA expression in adipocytes (real-time PCR)
- Format: cell-based, human
- conditions_used: differentiating adipocytes transfected with oligomeric compound; Table 75
In the oligonucleotide strings, read from the 5' end, every base follows the letter of its sugar. An asterisk marks phosphorothioate; unmarked linkages are phosphodiester. Other units and linkages are bracketed, terminal groups are in braces. A string of capitals states the bases alone. e = 2'-O-(2-methoxyethyl) (MOE); [5mC] = 5-methylcytosine
The reader will find reported PPAR gamma mRNA values listed item by item below.
assay_readout: PPAR gamma mRNA

# substance, assay_readout, recorded_measurement
rows = [
    ("344343 (AUGCCCUUUCAUCAUUGCACUG; anti-miR; all 2'-MOE, all phosphorothioate, methylation of C and T or U not given here) [compound 344343]", "PPAR gamma mRNA", "30 percentage of untreated control (UTC)"),
    ("344276 (antisense CAGGCAUAGGAUGACAAAGGGAA; all 2'-MOE, all phosphorothioate, methylation of C and T or U not given here) [compound 344276]", "PPAR gamma mRNA", "72 percentage of untreated control (UTC)"),
    ("328139 (eT*eA*e[5mC]*eT*eT*eT*eT*e[5mC]*eA*eT*eT*e[5mC]*e[5mC]*e[5mC]*e[5mC]*eT*e[5mC]*eA*e[5mC]*e[5mC]*eA; anti-miR) [compound 328139]", "PPAR gamma mRNA", "91 percentage of untreated control (UTC)"),
    ("346695 (CACUGGUACAAGGGUUGGGAGA; all 2'-MOE, all phosphorothioate, methylation of C and T or U not given here) [compound 346695]", "PPAR gamma mRNA", "78 percentage of untreated control (UTC)"),
    ("328138 (eG*eA*eG*e[5mC]*eT*eG*e[5mC]*eT*e[5mC]*eA*eG*e[5mC]*eT*eG*eG*e[5mC]*e[5mC]*eA*eT*e[5mC]*eA; anti-miR) [compound 328138]", "PPAR gamma mRNA", "63 percentage of untreated control (UTC)"),
    ("327972 (antisense eA*e[5mC]*eT*e[5mC]*eA*e[5mC]*e[5mC]*eG*eA*e[5mC]*eA*eG*eG*eT*eT*eG*eA*eA*eT*eG*eT*eT) [compound 327972]", "PPAR gamma mRNA", "85 percentage of untreated control (UTC)"),
]
